# measurement target: 11β-HSD1 (Homo sapiens, UniProt P28845)
# Sequence (P28845 whole entry): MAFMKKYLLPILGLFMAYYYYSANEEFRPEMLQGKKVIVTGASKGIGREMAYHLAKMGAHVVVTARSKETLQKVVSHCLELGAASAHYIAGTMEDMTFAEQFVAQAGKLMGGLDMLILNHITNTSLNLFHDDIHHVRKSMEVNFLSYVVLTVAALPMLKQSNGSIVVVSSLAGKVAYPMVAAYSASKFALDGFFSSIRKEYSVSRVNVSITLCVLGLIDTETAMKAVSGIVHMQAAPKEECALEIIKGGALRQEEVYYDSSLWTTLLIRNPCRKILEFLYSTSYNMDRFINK
# experimental details: In vitro inhibition of 11β-HSD1 with HTRF technology, cortisol generated by human liver microsomes
# Assay type: biochemical
# Set-up: detecting cortisol generated from cortisterone by human liver microsomes; from tissue; host or cells: human liver microsomes
# measurement context: 1 hour at 37° C., cortisone 80 nM
measurement name: IC50 (nM)

C[C@@H](c1ccc(C#Cc2ccn(C)c(=O)c2)cc1)N1CC[C@](CC(C)(C)O)(c2ccccc2)OC1=O	29
C[C@@H](c1ccc(C#Cc2ccc(=O)n(C)c2)cc1)N1CC[C@](CC(C)(C)O)(c2ccccc2)OC1=O	30

###

# measurement target: 11β-HSD1 (Homo sapiens)
# experimental details: Inhibition of a microsomal preparation of 11β-HSD1, scintillation proximity assay
# Format: biochemical
# Parameters: expressed in transfected cells; host or cells: CHO cells (microsomes)
# measurement context: at 100 nM; microsomes from CHO cells overexpressing human 11β-HSD1
measurement name: inhibition at 0.1 µM (%)

Here's what some known entries look like.
C[C@@H](c1ccc(C#CC2(O)CCN(C)CC2)cc1)N1CC[C@](CC(C)(C)O)(c2ccccc2)OC1=O	50.5
COC(=O)OC1(C#Cc2ccc([C@H](C)N3CC[C@](CC(C)(C)O)(c4ccccc4)OC3=O)cc2)CN(C(=O)OC)C1	95.8
CNC(=O)NC(C)(C)C#Cc1ccc([C@H](C)N2CC[C@](CC(C)(C)O)(c3ccccc3)OC2=O)cc1	92.2
C[C@@H](c1ccc(C#CC2(O)CCCC2)cc1)N1CC[C@](CC(C)(C)O)(c2ccccc2)OC1=O	89.1
C[C@@H](c1ccc(C#CC2(NC(N)=O)CCCCC2)cc1)N1CC[C@](CC(C)(C)O)(c2ccccc2)OC1=O	95.6

[A] COC(=O)N1CC(O)(C#Cc2ccc([C@H](C)N3CC[C@](CC(C)(C)O)(c4ccccc4)OC3=O)cc2)C1
[B] C[C@@H](c1ccc(C#CC2(O)CNC2)cc1)N1CC[C@](CC(C)(C)O)(c2ccccc2)OC1=O
Which numeric inhibition at 0.1 µM is bigger, that of A or that of B ? Answer by quoting the chosen item's label.
A
(A: 95.9%, B: 56.1%)

###

# measurement target: 11β-HSD1 (Homo sapiens)
# experimental details: Inhibition of a microsomal preparation of 11β-HSD1, scintillation proximity assay
# Format: biochemical
# Set-up: expressed in transfected cells; host or cells: CHO cells (microsomes)
# measurement context: at 100 nM; microsomes from CHO cells overexpressing human 11β-HSD1
measurement name: inhibition at 0.1 µM (%)

C[C@@H](c1ccc(C#CC2(O)CCOCC2)cc1)N1CC[C@](CC(C)(C)O)(c2ccccc2)OC1=O [Example 10]	84.7
CC(=O)N1CC(O)(C#Cc2ccc([C@H](C)N3CC[C@](CC(C)(C)O)(c4ccccc4)OC3=O)cc2)C1 [Example 25]	94.1
CC(=O)NC1(C#Cc2ccc([C@H](C)N3CC[C@](CC(C)(C)O)(c4ccccc4)OC3=O)cc2)CCCCC1 [Example 14]	89.8
C[C@@H](c1ccc(C#CC(C)(C)N2CCOC2=O)cc1)N1CC[C@](CC(C)(C)O)(c2ccccc2)OC1=O [Example 3]	99.8

###

# measurement target: 11β-HSD1 (Homo sapiens)
# experimental details: Inhibition of a microsomal preparation of 11β-HSD1, scintillation proximity assay
# Format: biochemical
# Design: expressed in transfected cells; host or cells: CHO cells (microsomes)
# measurement context: microsomes from CHO cells overexpressing human 11β-HSD1
measurement name: IC50 (nM)

CC(=O)NC1(C#Cc2ccc([C@H](C)N3CC[C@](CC(C)(C)O)(c4ccccc4)OC3=O)cc2)CCCCC1	4.2
C[C@@H](c1ccc(C#CC(C)(C)NC(N)=O)cc1)N1CC[C@](CC(C)(C)O)(c2ccccc2)OC1=O	2.4
C[C@@H](c1ccc(C#CC2(O)CCOCC2)cc1)N1CC[C@](CC(C)(C)O)(c2ccccc2)OC1=O	6.9
C[C@@H](c1ccc(C#CC(C)(C)C(=O)O)cc1)N1CC[C@](CC(C)(C)O)(c2ccccc2)OC1=O	13.4
C[C@@H](c1ccc(C#CC2(NC(N)=O)CCCCC2)cc1)N1CC[C@](CC(C)(C)O)(c2ccccc2)OC1=O	3.1

[A] C[C@@H](c1ccc(C#CC(C)(C)NS(C)(=O)=O)cc1)N1CC[C@](CC(C)(C)O)(c2ccccc2)OC1=O
[B] C[C@@H](c1ccc(C#Cc2ccccn2)cc1)N1CC[C@](CC(C)(C)O)(c2ccccc2)OC1=O
Lower value for measured IC50? Options: A , B Refer to your chosen item by its label in the answer.
B
(B: 1 nM, A: 3.4 nM)
